Reference source: ChEMBL document CHEMBL1201862

Biological target: High affinity choline transporter 1 (Homo sapiens)
Sequence (Q9GZV3 whole entry): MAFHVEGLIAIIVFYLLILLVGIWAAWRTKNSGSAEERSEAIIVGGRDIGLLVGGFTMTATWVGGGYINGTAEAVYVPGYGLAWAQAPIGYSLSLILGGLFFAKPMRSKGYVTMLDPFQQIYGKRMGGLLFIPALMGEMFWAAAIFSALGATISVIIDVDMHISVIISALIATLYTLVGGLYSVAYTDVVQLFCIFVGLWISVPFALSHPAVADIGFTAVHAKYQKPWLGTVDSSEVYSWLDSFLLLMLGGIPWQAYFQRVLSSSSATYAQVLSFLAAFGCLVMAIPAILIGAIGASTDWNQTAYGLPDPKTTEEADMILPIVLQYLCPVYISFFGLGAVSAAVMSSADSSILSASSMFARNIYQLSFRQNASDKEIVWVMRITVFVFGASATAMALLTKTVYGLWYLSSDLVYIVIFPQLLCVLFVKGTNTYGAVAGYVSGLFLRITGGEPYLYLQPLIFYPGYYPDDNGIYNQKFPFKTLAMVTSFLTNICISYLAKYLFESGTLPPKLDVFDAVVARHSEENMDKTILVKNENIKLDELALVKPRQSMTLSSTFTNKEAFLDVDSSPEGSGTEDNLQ
Assay: human choline transporter blockers, potency – cell-based, 5-point CRC, membrane potential dye, dose response (AID 504840)
Format: functional
The source made the active and inactive calls.
Entries and their measured IC50 follow.
measured-metric: IC50

molecule: O=C(NCC(c1ccco1)N1CCCCC1)c1cccc(NS(=O)(=O)c2ccc(Br)cc2)c1 (stereo not given)
system-tested: High affinity choline transporter 1 (Homo sapiens)
result: 6.92 µM (active)
--
molecule: CN1c2ccccc2C(O)=C(C(S)=Nc2ccc(F)c(Cl)c2)S1(=O)=O
system-tested: High affinity choline transporter 1 (Homo sapiens)
result: 4.79 µM (active)
--
molecule: Cc1cccc(C(=O)NNC(=S)NC(=O)c2ccccc2)c1
system-tested: High affinity choline transporter 1 (Homo sapiens)
result: 7.59 µM (active)
--
molecule: CCC(Oc1ccccc1)C(=O)Nc1ccc(S(=O)(=O)NCC2CCCO2)cc1 (stereo not given)
system-tested: High affinity choline transporter 1 (Homo sapiens)
result: 10.5 µM (active)
--
molecule: CCOC(=O)c1cnc2c(C(F)(F)F)cccc2c1N1CCOCC1
system-tested: High affinity choline transporter 1 (Homo sapiens)
result: 13.5 µM (active)

###

Molecular target: Phospholipase A2 (Homo sapiens, UniProt P04054);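 further: confirmatory dose-response counterscreen on phospholipase A2, testing hits that came from an ultra-high-throughput screen for ATG4B inhibitors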
Sequence (P04054 whole entry): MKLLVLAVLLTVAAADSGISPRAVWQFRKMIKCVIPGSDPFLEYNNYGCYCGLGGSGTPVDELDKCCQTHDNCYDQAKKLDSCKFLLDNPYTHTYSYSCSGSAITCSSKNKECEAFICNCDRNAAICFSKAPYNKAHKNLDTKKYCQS
Assay type: functional
The source made the active and inactive calls.
Reported IC50 values for the following compounds.
measured-metric: IC50

compound: O=C(CSc1nc2ccccc2c(=O)n1Cc1ccccc1)Nc1ccc(Br)cc1C(=O)O
result: 12.1 µM (active)

compound: CC(C)c1ccc(NC2CCCN(C(=O)c3cnn(C(C)C)c3)C2)cc1 (stereo not given)
result: 6.21 µM (active)

compound: S=C(NCCSCc1ccc(Cl)c(Cl)c1)Nc1ccccc1
result: 3.24 µM (active)

compound: O=C(O)C1Nc2c(Cl)cc(Cl)cc2C2C=CCC12 (stereo not given)
result: 9.08 µM (active)

compound: O=S(=O)(c1ccc(F)cc1)c1nc(-c2ccccc2F)oc1N1CCCCC1
result: 12.3 µM (active)

###

Molecular target: Probable nicotinate-nucleotide adenylyltransferase (Staphylococcus aureus (strain N315))
Sequence (P65502 whole entry): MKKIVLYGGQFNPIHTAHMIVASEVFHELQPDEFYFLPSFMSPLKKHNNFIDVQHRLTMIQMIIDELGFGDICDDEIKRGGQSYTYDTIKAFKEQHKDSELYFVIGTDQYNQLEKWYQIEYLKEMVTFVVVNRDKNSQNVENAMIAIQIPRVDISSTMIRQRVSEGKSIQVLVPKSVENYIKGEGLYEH
Format: functional, Staphylococcus aureus subsp. aureus N315
Conditions: read-out: IC50_Mean
Active and inactive are the calls of the source.

molecular-string: Cc1cc(C)c2nc(NNC(=O)c3ccc(S(=O)(=O)N4CCc5ccccc5C4)cc3)sc2c1
system-tested: Probable nicotinate-nucleotide adenylyltransferase (Staphylococcus aureus (strain N315))
IC50: 38.1 µM (active)
//
molecular-string: O=C(Nc1ccc(S(=O)(=O)Nc2nccs2)cc1)c1cc(-c2ccccc2)nc2ccccc12
system-tested: Probable nicotinate-nucleotide adenylyltransferase (Staphylococcus aureus (strain N315))
IC50: 20 µM (active)
//
molecular-string: Cc1ccc(-n2nc3c(c2NC(=O)c2ccc(Br)o2)CSC3)c(C)c1
system-tested: Probable nicotinate-nucleotide adenylyltransferase (Staphylococcus aureus (strain N315))
IC50: 8.03 µM (active)
//
molecular-string: NS(=O)(=O)c1ccc(NC(=O)COC(=O)c2c3c(nc4ccccc24)/C(=C\c2ccc4c(c2)OCO4)CCC3)cc1
system-tested: Probable nicotinate-nucleotide adenylyltransferase (Staphylococcus aureus (strain N315));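 further: confirmatory dose-response retesting of NadD inhibitor hits first found in an ultra-high-throughput screen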
IC50: 21.1 µM (active)

###

Experiment: loss of viability in HepG2 cells – cell-based, CellTiter-Glo, cherry-picked, cytotoxicity control for Shn3 inhibitor project, dose response (AID 624134)
Assay type: functional
The source made the active and inactive calls.

compound: CC(=O)N1c2ccc(S(=O)(=O)N3CCC(C(=O)Nc4cccc(F)c4)CC3)cc2CC1C (stereo unspecified)
AC50: 48.7 µM (active)
//
compound: CCN(CC)S(=O)(=O)c1ccc(-c2ccc(S(=O)(=O)N(CC)CC)cc2)cc1
AC50: 6.43 µM (active)
//
compound: Cc1cc(C)c2nc(NNC(=O)c3ccc(S(=O)(=O)N4CCc5ccccc5C4)cc3)sc2c1
AC50: 2.91 µM (active)
//
compound: Cn1c(SCC(=O)N2CCCc3ccccc32)nc2ccccc2c1=O
AC50: 43.6 µM (active)
//
compound: COc1ccccc1NS(=O)(=O)c1cc(NC(=O)c2ccc(Cl)nc2)ccc1Cl
AC50: 56.2 µM (active)
//
compound: Cc1nn(C)c(C(=O)NCc2ccc(Cl)cc2)c1Cl
AC50: 49.8 µM (active)

###

Molecular target: Cytochrome P450 2C19 (Homo sapiens)
Sequence (P33261 whole entry): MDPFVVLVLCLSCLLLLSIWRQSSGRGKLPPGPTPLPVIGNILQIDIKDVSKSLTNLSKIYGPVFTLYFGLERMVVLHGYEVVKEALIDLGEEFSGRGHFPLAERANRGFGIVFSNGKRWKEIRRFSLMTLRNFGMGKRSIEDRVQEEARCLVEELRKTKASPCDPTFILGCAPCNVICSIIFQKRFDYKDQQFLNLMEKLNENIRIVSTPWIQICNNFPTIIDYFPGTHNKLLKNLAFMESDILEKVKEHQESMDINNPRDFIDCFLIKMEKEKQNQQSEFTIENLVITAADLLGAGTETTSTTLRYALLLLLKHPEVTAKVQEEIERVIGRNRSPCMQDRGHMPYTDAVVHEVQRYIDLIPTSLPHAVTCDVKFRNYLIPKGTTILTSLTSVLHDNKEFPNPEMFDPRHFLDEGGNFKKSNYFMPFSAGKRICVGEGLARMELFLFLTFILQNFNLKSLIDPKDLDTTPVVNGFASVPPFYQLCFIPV
Test: Cytochrome panel assay with activity outcomes. Panel member name: p450-cyp2c19 Compounds with AC50 equal or less than 10 uM are considered active
Format: functional
Conditions: read-out: AC50
measured-metric: AC50

molecular-string: Cn1c(=O)cc(OCCCC(=O)Nc2cccnc2)c2ccccc21
measured-metric: AC50
result: 20 µM (inconclusive)
--
molecular-string: O=C(c1cc(O)nc2ccc(Br)cc12)N1CCC2(CC1)OCCO2
measured-metric: AC50
result: 28.2 µM (inconclusive)
--
molecular-string: O=c1c(-c2cc(F)cc(F)c2)nc2cnc(N3CCNCC3)nc2n1C1CC1
measured-metric: AC50
result: 20 µM (inconclusive)
--
molecular-string: CCCCNC(=O)CSc1nc2cc(OC)c(OC)cc2c(=O)n1Cc1ccc(OC)cc1
measured-metric: AC50
result: 6.31 µM (inconclusive)
--
molecular-string: Cc1cccn2c(/C=N/OCc3ccc(F)cc3)c(-c3ccc(Cl)cc3)nc12
measured-metric: AC50
result: 3.16 µM (inconclusive)
--
molecular-string: Cc1noc(C)c1C(=O)N1CCC2(CCCN(CC(C)C)C2)CC1
measured-metric: AC50
result: 39.8 µM (inconclusive)
--
molecular-string: CCCCn1c(=N)n(CC(=O)c2ccco2)c2ccccc21
measured-metric: AC50
result: 15.8 µM (inconclusive)

###

Collected EC50 values appear next to each entry.
Assay: alpha-synuclein stem-loop luciferase translation blockers – H4 neuroglioma cells, luminescence, confirmation (AID 1988)
Format: functional, cell-based
Activity calls are given as the source filed them.

molecule: O=C(Nc1ccc(S(=O)(=O)N2CCCCCC2)cc1)c1n[nH]cc1[N+](=O)[O-]
EC50: 8.3 µM (active)
--
molecule: CCc1nnc(NC(=O)c2ccc(S(=O)(=O)NC3CCCCC3)cc2)s1
EC50: > 120 µM (not active)
--
molecule: Cc1cc(C)c(NC=C2C(=O)NC(=O)NC2=O)c(C)c1
EC50: > 120 µM (not active)
--
molecule: N#CCN1C(=S)N=C(Nc2cccc(Cl)c2)C12CCCCC2
EC50: > 120 µM (not active)
--
molecule: COc1ccc(C2c3ccc(O)cc3Oc3ncn4nc(-c5cccnc5)nc4c32)cc1OC (configuration not stated)
EC50: > 120 µM (not active)
--
molecule: CCOC(=O)c1cc(-c2ccc(OC)cc2F)nc2c1c(C)nn2CCC#N
EC50: 23.3 µM (active)
--
molecule: C/C(=N/NC(=O)C1CCN(S(=O)(=O)c2ccc(C)cc2)CC1)c1cccc([N+](=O)[O-])c1
EC50: 48 µM (active)

###

Test system: H4
Assay: Luminescence Cell-Based Dose Response HTS to Identify Activators of 5'UTR Stem-Loop Driven Prion Protein mRNA Translation in H4 Neuroglioblastoma Cells. [Related pubchem assays: 1829 (Project Summary), 1814 (Primary HTS)]
Format: functional
Conditions: Homo sapiens
The source made the active and inactive calls.

molecule: CCOC(=O)c1ccc(NC(=O)C2C3C=CC(O3)C2C(=O)O)cc1 (configuration not stated)
EC50: > 120 µM (not active)

molecule: C/C(=N\NC(=O)C1=NNC(=O)C1C)c1cccs1 (configuration not stated)
EC50: 29.9 µM (active)

molecule: COC(=O)c1cc(-c2c(C)nn(-c3ccccc3)c2C)[nH]n1
EC50: 11.2 µM (active)

molecule: CC(C)(C)C1=CC=C(C(C)(C)C)C(=O)C1=O
EC50: > 120 µM (not active)

molecule: O=C(CSc1nnc(-c2ccccn2)o1)Nc1cccc(Cl)c1
EC50: > 120 µM (not active)

molecule: Cc1ccc(NC(=O)Cc2nc(CSc3nnc(-c4ccc5c(c4)OCO5)o3)cs2)cc1
EC50: 6.97 µM (active)

molecule: CC(C)c1cc2c(c(O)c1O)[C@@]13CCCC(C)(C)C1CC2OC3=O (some centres not stated)
EC50: > 120 µM (not active)

###

This listing pairs compounds with measured EC50.
Target: Streptokinase A (Streptococcus pyogenes serotype M1)
Sequence (P10520 whole entry): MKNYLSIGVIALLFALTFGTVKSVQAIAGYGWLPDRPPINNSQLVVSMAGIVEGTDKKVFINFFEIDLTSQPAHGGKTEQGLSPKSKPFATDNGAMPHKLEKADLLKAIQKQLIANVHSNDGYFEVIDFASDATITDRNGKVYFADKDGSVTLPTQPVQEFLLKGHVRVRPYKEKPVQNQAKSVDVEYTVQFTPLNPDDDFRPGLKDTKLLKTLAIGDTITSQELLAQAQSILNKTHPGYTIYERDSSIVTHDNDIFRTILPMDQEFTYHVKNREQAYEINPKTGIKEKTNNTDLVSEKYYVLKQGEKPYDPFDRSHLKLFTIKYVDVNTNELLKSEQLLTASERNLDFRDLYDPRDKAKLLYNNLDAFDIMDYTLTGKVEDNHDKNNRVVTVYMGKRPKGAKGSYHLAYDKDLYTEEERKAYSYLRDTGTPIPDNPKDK
Assay: viability-normalized secreted streptokinase activity reduction – plasminogen activation absorbance, OD405, dose response (AID 1914);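 further: secreted streptokinase activity via plasminogen activation per viability signal from cell pellet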
Format: functional, Streptococcus pyogenes M1 GAS
Structures can show the parent of a compound that is named as a salt. Active and inactive are the calls of the source.

compound: CC(C)(C)c1ccc(OCC(=O)N2CCN(c3ncccn3)CC2)cc1
system-tested: Streptokinase A (Streptococcus pyogenes serotype M1)
EC50: > 150 µM (not active)

compound: Cc1cc(C)c2nc(NNC(=O)c3ccc(S(=O)(=O)N4CCc5ccccc5C4)cc3)sc2c1
system-tested: Streptokinase A (Streptococcus pyogenes serotype M1)
EC50: > 150 µM (not active)

compound: FC(F)(F)c1cc(-c2ccco2)nc(NCc2ccc(Cl)cc2)n1
system-tested: Streptokinase A (Streptococcus pyogenes serotype M1)
EC50: 9.32 µM (active)

compound: Cn1c(O)cc(=O)nc1SCC(=O)Nc1cccc2ccccc12
system-tested: Streptokinase A (Streptococcus pyogenes serotype M1)
EC50: > 150 µM (not active)

compound: Cc1onc(-c2c(F)cccc2Cl)c1C(=O)NCc1ccc2c(c1)OCO2
system-tested: Streptokinase A (Streptococcus pyogenes serotype M1)
EC50: > 150 µM (not active)

compound: CN(C)CCOc1ccc(/C(=C(/CCCl)c2ccccc2)c2ccccc2)cc1 [TOREMIFENE CITRATE]
system-tested: Streptokinase A (Streptococcus pyogenes serotype M1)
EC50: 25.9 µM (active)
